# reported Stability (%); entries follow
EXPERIMENTAL_SYSTEM: HLA-A*0101 (Homo sapiens, UniProt P04439, A114D/A174V/A182V/D101N/D185E/E176A/E190D/L180R/Q94H/R68K/S129P/T187R/V100A/V91M/W191G)
ASSAY: NeoScreen pHLA complex stability assay
Type: binding
CONDITIONS_USED: NeoScreen: peptide 1 µM, HLA I 2-10 nM, 24 h incubation, urea 0, 2, 4 and 6 M, ELISA with w6/32; relative to reference peptide […] (100%)
MEASURE_NAME: Stability (%)

{"ORDERED_RESIDUES": "CNDPFLGVY", "EXPERIMENTAL_RESULT": 6}
{"ORDERED_RESIDUES": "WTAGAAAYY", "EXPERIMENTAL_RESULT": 88}
{"ORDERED_RESIDUES": "TSNQVAVLY", "EXPERIMENTAL_RESULT": 15}
{"ORDERED_RESIDUES": "NSFTRGVYY", "EXPERIMENTAL_RESULT": 12}
